- test: soluble on expression in E. coli; label from the status in PepcDB or PDB records

| biosequence | soluble on expression in E. coli |
| --- | --- |
| GPLGSPEFISLTSIPSLREQQHPLIRQLADCIEEVWHQHLDLSPYHLPAELGYVEGRLEGEKLTIENRCYQTPQFRKMHLELAKVGNMLDILHCVMFPRPEYDLPMFGCDLVGGRGQISAAIADLSPVHLDRTLPESYNSALTSLNTLNFSQPRELPEWGNIFSDFCIFVRPSSPEEEAMFLGRVREFLQVHCQGAIAASPVSAEQKQQILAGQHNYCSKQQQNDKTRRVLEKAFGVDWAENYMTTVLFDLPE | soluble |
| MGACPRFERASARGMIARNPIKQDPAMRNTQDDHSRFLSLVLRHQPETIGLQLDDQGWADIGELLARLAAKGRNLGRKQLEKIVLDNDKQRFAISEDGLRIRANQGHSIKIDLGLAACEPPDRLYHGTASRFLDAILAEGLRPGQRQHVHLSADGQTARKVGARHGKPVVLEIDARAMRQAGLAFYRSDNGVWLIDGVPPVFIRQTEARLEHHHHHH | soluble |
| MGSDKIHHHHHHMARLSEGWSKEPFFLFFHPPKSPTKKENIKMNYRETLQAVDTEKALSVIGINSTLQGAYVKFNCPECEQQALIKAYGEKKNLWYCPKCKKSGHIISLTMTKKNIQWEEAKDLLLKARNGVKKITEEFNLKYDLQYNDFIKDKGLSEDICKFLEIGTPKGKTMLSGCVAFLVRDEVGMRVAYFGIKMKDEKHVFHKSFNPEQYLYGFQNLDFAYDVYFTTDLFECIKHIENGFQCVCNFGLPYISNEQMELLEKAERVTFSIRDELVKPFALQLTQRQKFYRFIK | not soluble |
| MGSDKIHHHHHHMGQRIPVTLGNIAPLAVKPFRPGKLALVCEGGGQRGIFTAGVLDEFMRAGFNPFDLMLGTSAGAQNLSAYMCNQQGYARKVITRYTTSRQFFDPMRFVRGGNLIDLDWLVEATSQQMPLAMNYAEAQFALGKELWLCACRGDDYSASYFSPTPQTWLDLIRASSAIPGFYRSGVLLDGVSYLDGGVSDAIPVQEAARRGAQTIVVIRTVPSQMFYTPQWFKRMERWLGESSLQPLVNLVHHHETTYRAIQQFIEKPPGKLRIFEIYPQRPLRSMALGSRLPALLEDYKTGRQCGRYFLATVGKLLADQPPLLRHAPRIARPAPVVVPPVPVANEAPQATIIPAPQANDPSFDHEDLA | not soluble |
| MAHHHHHHMFLLCRTNLAKKIKDKIPYGVKQSQNYKDAKKQERLALEANRKLKESRGMLLDGKKNLFMCLRQNSDINWYRAGQILKHLEIHQRAKPDITPSLREKITNIANFVKKGR | soluble |
| MSLPTTIQAISAEAINLPLTEPFAIASGAQAVAANVLVKVQLADGTLGLGEAAPFPAVSGETQTGTSAAIERLQSHLLGADVRGWRKLAAMLDHAEHEAAAARCGLEMAMLDALTRHYHMPLHVFFGGVSKQLETDMTITAGDEVHAAASAKAILARGIKSIKVKTAGVDVAYDLARLRAIHQAAPTAPLIVDGNCGYDVERALAFCAACKAESIPMVLFEQPLPREDWAGMAQVTAQSGFAVAADESARSAHDVLRIAREGTASVINIKLMKAGVAEGLKMIAIAQAAGLGLMIGGMVESILAMSFSANLAAGNGGFDFIDLDTPLFIAEHPFIGGFAQTGGTLQLADVAGHGVNLEGHHHHHH | soluble |
